What pIC50 was measured for each of the following?
target: mTOR (Homo sapiens (Human)); experiment: mTOR biochemical potency assay (Assay d)
pIC50: −log10 of the molar value.

Give its pIC50 value. Item: C[C@@H](OCCN1CCC2(CC2)C1)c1ccc(-c2ccc3nnc4c(c3c2)n(C2CCOCC2)c(=O)n4C)cn1 [Example 102]
< 5.00

Next: CC(C)n1c(=O)n(C)c2nnc3ccc(-c4ccc([C@@H](C)OCCN5CCC6(CC6)C5)nc4)cc3c21 [Example 53]
< 5.00

Next: CC(C)n1c(=O)n(C)c2nnc3ccc(-c4ccc([C@@H](C)OCCN5CC[C@@H](OC6CC6)C5)nc4)cc3c21 [Example 76]
< 5.00

###

biological target: ATM (Homo sapiens (Human), UniProt Q13315); test: biochemical; type: biochemical; settings: read-out: ATM IC50
Sequence (Q13315 whole entry, looked up): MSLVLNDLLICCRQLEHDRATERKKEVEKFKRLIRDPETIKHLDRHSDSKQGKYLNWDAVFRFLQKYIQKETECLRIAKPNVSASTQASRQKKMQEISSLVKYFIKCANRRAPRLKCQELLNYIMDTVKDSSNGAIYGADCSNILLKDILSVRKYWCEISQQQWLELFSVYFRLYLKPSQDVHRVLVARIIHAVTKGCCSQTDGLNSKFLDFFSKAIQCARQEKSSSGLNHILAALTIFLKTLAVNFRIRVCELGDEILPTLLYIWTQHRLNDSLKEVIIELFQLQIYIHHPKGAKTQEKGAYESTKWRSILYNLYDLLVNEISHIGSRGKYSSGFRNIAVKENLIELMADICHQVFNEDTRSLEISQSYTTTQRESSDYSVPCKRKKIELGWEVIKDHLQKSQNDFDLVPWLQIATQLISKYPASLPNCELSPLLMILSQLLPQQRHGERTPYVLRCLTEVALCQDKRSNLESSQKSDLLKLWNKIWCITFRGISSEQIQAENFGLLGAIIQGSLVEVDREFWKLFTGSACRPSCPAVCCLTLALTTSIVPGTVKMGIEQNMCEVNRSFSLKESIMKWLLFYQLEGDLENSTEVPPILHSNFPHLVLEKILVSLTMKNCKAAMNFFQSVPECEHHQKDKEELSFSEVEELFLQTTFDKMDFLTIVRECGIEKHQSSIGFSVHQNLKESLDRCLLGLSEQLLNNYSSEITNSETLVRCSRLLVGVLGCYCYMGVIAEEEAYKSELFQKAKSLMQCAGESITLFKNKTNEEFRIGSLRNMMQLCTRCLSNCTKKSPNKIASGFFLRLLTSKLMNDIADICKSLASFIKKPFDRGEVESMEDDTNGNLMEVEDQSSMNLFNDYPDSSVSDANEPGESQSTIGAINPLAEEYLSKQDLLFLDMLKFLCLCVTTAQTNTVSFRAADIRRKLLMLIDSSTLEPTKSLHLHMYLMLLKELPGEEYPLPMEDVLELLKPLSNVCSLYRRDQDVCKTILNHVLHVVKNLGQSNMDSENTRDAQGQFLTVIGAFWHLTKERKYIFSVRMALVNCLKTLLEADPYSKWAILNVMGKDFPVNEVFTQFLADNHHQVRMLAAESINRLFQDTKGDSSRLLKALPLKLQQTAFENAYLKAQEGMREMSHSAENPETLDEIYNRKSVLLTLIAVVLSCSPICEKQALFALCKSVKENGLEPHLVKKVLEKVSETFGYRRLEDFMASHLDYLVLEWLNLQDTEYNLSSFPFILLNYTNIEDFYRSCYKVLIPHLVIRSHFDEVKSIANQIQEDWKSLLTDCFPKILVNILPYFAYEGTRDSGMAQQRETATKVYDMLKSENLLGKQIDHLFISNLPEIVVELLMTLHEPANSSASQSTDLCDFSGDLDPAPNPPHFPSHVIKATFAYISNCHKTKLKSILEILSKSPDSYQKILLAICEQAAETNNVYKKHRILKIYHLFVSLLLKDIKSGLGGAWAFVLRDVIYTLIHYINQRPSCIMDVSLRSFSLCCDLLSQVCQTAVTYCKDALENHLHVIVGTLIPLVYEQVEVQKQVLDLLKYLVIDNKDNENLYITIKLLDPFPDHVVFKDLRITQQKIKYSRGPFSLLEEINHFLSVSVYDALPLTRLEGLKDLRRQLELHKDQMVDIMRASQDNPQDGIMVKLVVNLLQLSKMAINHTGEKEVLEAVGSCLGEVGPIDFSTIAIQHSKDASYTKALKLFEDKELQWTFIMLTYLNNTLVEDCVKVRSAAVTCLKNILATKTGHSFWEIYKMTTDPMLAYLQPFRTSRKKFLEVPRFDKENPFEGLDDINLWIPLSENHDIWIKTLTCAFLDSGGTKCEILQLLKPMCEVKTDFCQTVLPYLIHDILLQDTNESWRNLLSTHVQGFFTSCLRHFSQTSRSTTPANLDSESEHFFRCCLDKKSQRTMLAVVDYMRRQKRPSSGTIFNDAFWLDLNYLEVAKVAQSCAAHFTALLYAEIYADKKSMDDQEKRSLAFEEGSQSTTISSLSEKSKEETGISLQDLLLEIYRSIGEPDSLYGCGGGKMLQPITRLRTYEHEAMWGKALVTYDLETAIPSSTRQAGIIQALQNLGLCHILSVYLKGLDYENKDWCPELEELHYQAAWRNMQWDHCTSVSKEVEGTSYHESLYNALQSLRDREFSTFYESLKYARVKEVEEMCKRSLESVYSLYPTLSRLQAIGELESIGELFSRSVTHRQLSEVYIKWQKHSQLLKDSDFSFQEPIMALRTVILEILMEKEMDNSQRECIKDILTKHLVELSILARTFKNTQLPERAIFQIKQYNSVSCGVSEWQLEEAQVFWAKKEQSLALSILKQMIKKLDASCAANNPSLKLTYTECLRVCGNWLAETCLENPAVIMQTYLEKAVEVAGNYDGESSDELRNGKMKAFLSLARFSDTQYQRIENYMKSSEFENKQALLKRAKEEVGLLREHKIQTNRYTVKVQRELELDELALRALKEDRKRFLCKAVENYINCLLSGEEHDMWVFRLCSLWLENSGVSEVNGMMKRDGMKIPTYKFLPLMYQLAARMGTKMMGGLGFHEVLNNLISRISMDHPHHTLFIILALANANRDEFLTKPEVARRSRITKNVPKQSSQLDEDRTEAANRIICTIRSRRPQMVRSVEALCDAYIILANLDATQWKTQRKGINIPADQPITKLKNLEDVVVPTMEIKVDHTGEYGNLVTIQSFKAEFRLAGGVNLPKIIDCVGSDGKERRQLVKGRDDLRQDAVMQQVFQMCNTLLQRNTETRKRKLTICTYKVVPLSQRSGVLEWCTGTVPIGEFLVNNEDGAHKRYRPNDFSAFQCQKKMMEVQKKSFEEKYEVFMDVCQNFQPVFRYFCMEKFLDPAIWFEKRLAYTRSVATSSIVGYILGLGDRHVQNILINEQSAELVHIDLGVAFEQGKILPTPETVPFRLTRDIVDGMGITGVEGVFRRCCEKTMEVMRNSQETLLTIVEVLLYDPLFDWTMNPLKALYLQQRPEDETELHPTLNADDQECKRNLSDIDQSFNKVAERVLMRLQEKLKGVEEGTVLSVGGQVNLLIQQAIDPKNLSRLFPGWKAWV
Consider the following compounds; for each one, report its pIC50.
Just so you know, pIC50 here is -log10 of the concentration in molar units; reply with that number alone.

What is its pIC50 for ATM (Homo sapiens (Human), UniProt Q13315)? Entry: CC(C)n1c(=O)n(C)c2nnc3ccc(-c4ccc(COCCN5CCC(C)(C)CC5)nc4)cc3c21 [Example 31]
7.96

One more compound: CC(C)n1c(=O)n(C)c2nnc3ccc(-c4ccc([C@@H](C)OCCN5CCC(C6COC6)CC5)nc4)cc3c21 [Example 83]
8.62

How about this compound: C[C@@H](OCCN1CCC2(CCC2)CC1)c1ccc(-c2cc3c(cc2F)nnc2c3n(C3CCOCC3)c(=O)n2C)cn1 [Example 156]
8.22

Now this one: Cn1c(=O)n(C2CCOCC2)c2c3cc(-c4ccc(COCCN5CC6CC6C5)nc4)ccc3nnc21 (stereo not shown) [Example 98]
7.21

And then CC(C)n1c(=O)n(C)c2nnc3ccc(-c4ccc(COCC5CCCN(C)C5)nc4)cc3c21 (stereo not shown) [Example 19] , what is it?
7.00

Next compound: CO[C@H]1C[C@@H](n2c(=O)n(C)c3nnc4ccc(-c5ccc([C@@H](C)OCCN6CCC7(CC7)C6)nc5)cc4c32)C1 [Example 171]
8.60

Now consider CC(C)OC1CCN(CCO[C@H](C)c2ccc(-c3ccc4nnc5c(c4c3)n(C(C)C)c(=O)n5C)cn2)CC1 [Example 92] and answer again.
8.82

###

molecular target: PI3Kα (p110α/p85a) (Homo sapiens (Human), UniProt P42336); test: PI3K biochemical potency assay (Assay c), PI3Kα
Sequence (P42336 whole entry, looked up): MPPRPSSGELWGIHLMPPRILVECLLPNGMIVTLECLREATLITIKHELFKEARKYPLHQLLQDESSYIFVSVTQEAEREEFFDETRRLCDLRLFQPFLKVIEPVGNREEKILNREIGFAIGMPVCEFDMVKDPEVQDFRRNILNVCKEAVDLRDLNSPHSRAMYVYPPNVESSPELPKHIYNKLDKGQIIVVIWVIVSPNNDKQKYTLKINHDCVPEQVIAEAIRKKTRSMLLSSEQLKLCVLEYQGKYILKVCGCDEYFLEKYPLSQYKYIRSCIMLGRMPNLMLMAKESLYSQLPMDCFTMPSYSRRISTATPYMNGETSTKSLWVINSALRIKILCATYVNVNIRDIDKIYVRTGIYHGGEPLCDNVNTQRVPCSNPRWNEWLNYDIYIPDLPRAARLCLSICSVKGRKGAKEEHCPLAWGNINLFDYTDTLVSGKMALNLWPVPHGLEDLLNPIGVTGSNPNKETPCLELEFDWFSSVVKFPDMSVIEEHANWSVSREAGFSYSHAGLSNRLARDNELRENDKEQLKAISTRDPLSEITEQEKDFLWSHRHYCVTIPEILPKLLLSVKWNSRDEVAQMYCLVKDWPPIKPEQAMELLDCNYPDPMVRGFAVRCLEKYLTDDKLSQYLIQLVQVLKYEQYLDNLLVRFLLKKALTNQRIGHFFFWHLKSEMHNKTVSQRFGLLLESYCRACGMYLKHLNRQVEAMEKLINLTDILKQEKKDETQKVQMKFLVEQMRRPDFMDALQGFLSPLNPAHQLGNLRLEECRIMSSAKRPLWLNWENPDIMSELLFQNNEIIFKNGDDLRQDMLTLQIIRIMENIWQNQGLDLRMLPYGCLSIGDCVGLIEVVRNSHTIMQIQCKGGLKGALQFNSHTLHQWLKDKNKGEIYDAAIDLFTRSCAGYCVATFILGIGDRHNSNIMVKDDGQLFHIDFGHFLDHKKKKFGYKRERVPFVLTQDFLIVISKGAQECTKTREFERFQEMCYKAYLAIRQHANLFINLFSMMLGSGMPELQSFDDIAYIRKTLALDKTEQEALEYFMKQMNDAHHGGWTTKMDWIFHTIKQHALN
Sequence (P27986 whole entry partner, looked up): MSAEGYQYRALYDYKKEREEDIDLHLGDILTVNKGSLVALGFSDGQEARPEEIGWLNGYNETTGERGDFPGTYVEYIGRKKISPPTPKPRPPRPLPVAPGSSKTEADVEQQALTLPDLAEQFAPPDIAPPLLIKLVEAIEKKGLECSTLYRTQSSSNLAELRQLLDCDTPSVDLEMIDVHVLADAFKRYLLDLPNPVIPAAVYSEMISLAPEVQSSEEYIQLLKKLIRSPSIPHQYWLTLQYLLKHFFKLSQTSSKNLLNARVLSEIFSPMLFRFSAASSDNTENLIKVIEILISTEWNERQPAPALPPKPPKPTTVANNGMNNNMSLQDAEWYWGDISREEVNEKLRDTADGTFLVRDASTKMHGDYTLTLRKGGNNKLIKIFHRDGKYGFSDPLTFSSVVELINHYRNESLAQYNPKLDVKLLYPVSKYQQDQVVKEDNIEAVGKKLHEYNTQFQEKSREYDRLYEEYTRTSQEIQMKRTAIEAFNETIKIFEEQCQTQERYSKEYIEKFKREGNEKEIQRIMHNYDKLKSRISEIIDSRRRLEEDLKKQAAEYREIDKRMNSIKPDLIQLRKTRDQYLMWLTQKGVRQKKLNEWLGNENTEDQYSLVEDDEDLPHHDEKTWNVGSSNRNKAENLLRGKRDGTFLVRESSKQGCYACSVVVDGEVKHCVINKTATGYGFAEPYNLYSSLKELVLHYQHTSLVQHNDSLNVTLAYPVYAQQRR
measured_metric: IC50

Can you look up the measured IC50 of `CC(C)n1c(=O)n(C)c2nnc3ccc(-c4ccc([C@@H](C)OCCN5CCC6(CC6)C5)nc4)cc3c21` for me?
> 10 µM

# iterate: `C[C@@H](OCCN1CCC2(CC2)C1)c1ccc(-c2ccc3nnc4c(c3c2)n(C2CCOCC2)c(=O)n4C)cn1`
> 10 µM

Same lookup for `CC(C)n1c(=O)n(C)c2nnc3ccc(-c4ccc([C@@H](C)OCCN5CC[C@@H](OC6CC6)C5)nc4)cc3c21` , please.
> 10 µM

###

target: UniProtKB Q13315; experiment: biochemical; assay type: biochemical
measured_metric: pIC50
FYI, pIC50 means -log10 of a concentration in mol per litre.

// pIC50 lookup, key: `CO[C@H]1C[C@H](n2c(=O)n(C)c3nnc4ccc(-c5ccc(COCCN6CCC7(CC7)C6)nc5)cc4c32)C1`
7.69

Then this molecule: `C[C@@H](OCCN1CCC2(COC2)C1)c1ccc(-c2ccc3nnc4c(c3c2)n(C2CCOCC2)c(=O)n4C)cn1`
8.54

Ok, now `Cn1c(=O)n(C2CCOCC2)c2c3cc(-c4ccc(COCCN5CCC6(CC6)C5)nc4)ccc3nnc21`
7.62

###

test system: phosp-KAP1 in MCF-7 cells; experiment: phosp-KAP1 MCF-7 cellular potency assay (Assay f); type: cell-based; conditions: Homo sapiens, MCF7, read-out: Etoposide MCF-7 cellular IC50
measured_metric: IC50 (nM)
Write it as a number; the unit nM goes unstated.

Could you share which IC50 value was measured for CC(C)n1c(=O)n(C)c2nnc3ccc(-c4ccc(COCCN5CCC(C)(C)C5)nc4)cc3c21 [Example 36] ?
20

// query: CC(C)n1c(=O)n(C)c2nnc3ccc(-c4ccc([C@@H](C)OCCN5CCC(C)(C)CC5)nc4)cc3c21 [Example 73]
9.1

Same question for CC(C)n1c(=O)n(C)c2nnc3ccc(-c4ccc(COCCN5CC6CC6C5)nc4)cc3c21 (stereo not shown) [Example 1] please.
40

// same read-out, input: C[C@@H](OCCN1CCC2(CC1)CC2)c1ccc(-c2ccc3nnc4c(c3c2)n(C2CCOCC2)c(=O)n4C)cn1 [Example 107]
12

###

Task for the reader: assign each of the following compounds its reported pIC50.
target: ATM (phospho-ATM Ser1981) in SN38 treated HT-29 cells (Homo sapiens (Human), UniProt Q13315); test: cell-based; conditions: HT-29 cells, SN-38; read-out: SN-38 HT-29 cellular IC50
Sequence (Q13315 whole entry, looked up): as the sequence (Q13315 whole entry, looked up) above
Schema: pIC50 number; meaning minus log10 of the concentration expressed in molar units.

// lookup pIC50 for CC(C)n1c(=O)n(C)c2nnc3ccc(-c4ccc([C@@H](C)OCCN5CCC(F)CC5)nc4)cc3c21 [Example 69]
7.33

Proceed to CO[C@H]1CCN(CCOCc2ccc(-c3ccc4nnc5c(c4c3)n(C(C)C)c(=O)n5C)cn2)C1 [Example 43]
7.04

Try this compound too: CC(C)n1c(=O)n(C)c2nnc3ccc(-c4ccc([C@@H](C)OCCN5CCC(C)(C)CC5)nc4)cc3c21 [Example 73]
8.04

How about this compound: CC(C)n1c(=O)n(C)c2nnc3ccc(-c4ccc(COCCN5CCC(C)(C)C5)nc4)cc3c21 [Example 36]
7.70

###

target: aldehyde oxidase (AO) (Homo sapiens (Human), UniProt Q06278); experiment: in vitro; details: human, cytosol
measured_metric: microsomal CLint (µL/min/mg)
Could you give me the number in µL/min/mg? Just the number is fine.

Recall the recorded microsomal CLint for CCN(C(C)=O)c1cccc(-c2ccnc3c(C#N)cnn23)c1 [Reference compound 4, Zaleplon] with aldehyde oxidase (AO) (Homo sapiens (Human), UniProt Q06278) and state it.
0.893

###

target: ATM (Homo sapiens (Human), UniProt Q13315); experiment: biochemical; assay type: biochemical; conditions: read-out: ATM IC50
measured_metric: log10 IC50 (log10 of the value in nM)
Reminder: these figures are log10 of reported IC50, in nM before transformation.

Bench note: what log10 IC50 did CC(C)n1c(=O)n(C)c2nnc3cc(F)c(-c4ccc([C@@H](C)OCCN5CCC(C)(C)CC5)nc4)cc3c21 [Example 139] show?
0.45

And what about the molecule COC1CCN(CCO[C@H](C)c2ccc(-c3ccc4nnc5c(c4c3)n(C(C)C)c(=O)n5C)cn2)CC1 [Example 56] ?
0.51

Next molecule up: CO[C@H]1C[C@@H](n2c(=O)n(C)c3nnc4ccc(-c5ccc([C@@H](C)OCCN6CCC7(CC6)CC7)nc5)cc4c32)C1 [Example 170]
0.20

Also, CC(C)n1c(=O)n(C)c2nnc3cc(F)c(-c4ccc([C@@H](C)OCCN5CC6CC6C5)nc4)cc3c21 (stereo partly shown) [Example 143] please.
1.04

C[C@@H](OCCN1CCC2(CCC2)C1)c1ccc(-c2ccc3nnc4c(c3c2)n(C2CCOCC2)c(=O)n4C)cn1 [Example 118] , same question.
0.61

// query: CC(C)n1c(=O)n(C)c2nnc3ccc(-c4ccc(COCCN5CCC(C#N)C5)nc4)cc3c21 (stereo not shown) [Example 25]
1.85

Item: CC(C)n1c(=O)n(C)c2nnc3ccc(-c4ccc(COCCN5CC[C@H](OC(F)F)C5)nc4)cc3c21 [Example 51]
0.88

###

Exercise: for every item that follows, state its recorded IC50.
biological target: UniProt:Q13315; assay: biochemical; assay type: biochemical; conditions: read-out: ATM IC50
Write the numeric value and follow it with the unit.

# input compound: `C[C@@H](OCCN1CC[C@@H](OC2CC2)C1)c1ccc(-c2ccc3nnc4c(c3c2)n(C2CCOCC2)c(=O)n4C)cn1` ; wanted: its IC50
4.3 nM

Here is the next compound: `CC(C)n1c(=O)n(C)c2nnc3ccc(-c4ccc([C@H](C)OCCN5CCC(F)(F)CC5)nc4)cc3c21`
179 nM

How about CCCC(OCCN1CCCC1)c1ccc(-c2ccc3nnc4c(c3c2)n(C(C)C)c(=O)n4C)cn1 (stereo not shown) ?
147 nM

# repeat for `CC(C)n1c(=O)n(C)c2nnc3ccc(-c4ccc([C@@H](C)OCCN5CCC(C#N)CC5)nc4)cc3c21`
8.5 nM

###

biological target: ATM (Homo sapiens (Human), UniProt Q13315); experiment: biochemical; format: biochemical; settings: read-out: ATM IC50
Field: label. Allowed values: y (IC50 < 10 nM) or n (IC50 >= 10 nM).

Is IC50 of `CC(C)n1c(=O)n(C)c2nnc3ccc(-c4ccc(COCCN5CCC(C)(C)C5)nc4)cc3c21` strictly below 10 nM?
y

Also `C[C@@H](OCCN1CC[C@@H](OC(F)F)C1)c1ccc(-c2cc3c(cc2F)nnc2c3n(C3CCOCC3)c(=O)n2C)cn1` , if possible.
n

One more compound: `CC(C)n1c(=O)n(C)c2nnc3ccc(-c4ccc([C@@H](C)OCCN5CCC(C(F)(F)F)CC5)nc4)cc3c21`
y

One more compound: `Cn1c(=O)n(C2CCOCC2)c2c3cc(-c4ccc(COCCN5CC[C@H](OC(F)F)C5)nc4)ccc3nnc21`
n

And then `CO[C@H]1CCN(CCOCc2ccc(-c3ccc4nnc5c(c4c3)n(C(C)C)c(=O)n5C)cn2)C1` , what is it?
n

Next: `CC(C)n1c(=O)n(C)c2nnc3ccc(-c4ccc(COCCN5CCC(F)CC5)nc4)cc3c21`
n

Queued: `CC(C)n1c(=O)n(C)c2nnc3ccc(-c4ccc(COCCN5CCC[C@H]5C)nc4)cc3c21`
n

Same thing, different compound: CC(C)n1c(=O)n(C)c2nnc3ccc(-c4ccc(COC5CCCN(C)C5)nc4)cc3c21 (centres unmarked)
n

Okay, and Cn1c(=O)n([C@H]2CCCOC2)c2c3cc(-c4ccc(COCCN5CC6CC6C5)nc4)ccc3nnc21 (some centres unmarked) ?
n

Subsequent entry: `CC(C)n1c(=O)n(C)c2nnc3cc(F)c(-c4ccc([C@@H](C)OCCN5CCC6(CC5)CC6)nc4)cc3c21`
y

Try the compound `CC(C)n1c(=O)n(C)c2nnc3ccc(-c4ccc([C@@H](C)OCCN5CCC6(COC6)C5)nc4)cc3c21`
y

Try the compound `CC(C)n1c(=O)n(C)c2nnc3ccc(-c4ccc(COCCN5CC[C@@H](N(C)C)C5)nc4)cc3c21`
n

Thanks! And `CC(C)n1c(=O)n(C)c2nnc3ccc(-c4ccc(COCCN5CCC(C#N)CC5)nc4)cc3c21` ?
n

Same read-out for `CC(C)n1c(=O)n(C)c2nnc3ccc(-c4ccc([C@@H](C)OCCN5CCC(C)(C)C5)nc4)cc3c21` ?
y

And the next one, `CC(C)n1c(=O)n(C)c2nnc3ccc(-c4ccc(COC5CCN(C)CC5)nc4)cc3c21` ?
n

Then `CO[C@H]1C[C@@H](n2c(=O)n(C)c3nnc4ccc(-c5ccc(COCCN6CCCC6)nc5)cc4c32)C1` ?
n

Then CC(C)n1c(=O)n(C)c2nnc3ccc(-c4ccc(COCCN5CC6CC6C5)nc4)cc3c21 (centres unmarked) ?
n

Now consider `CC(C)n1c(=O)n(C)c2nnc3ccc(-c4ccc(COCCN(C)C)nc4)cc3c21` .
n

Now try `Cn1c(=O)n(C2CCOCC2)c2c3cc(-c4ccc(COCCN5CCC(F)CC5)nc4)ccc3nnc21` .
n

Entry to check: `C[C@@H](OCCN1CCCC1)c1ccc(-c2ccc3nnc4c(c3c2)n(C2CCOCC2)c(=O)n4C)cn1`
n

Queued: `C[C@@H](OCCN1CCC(C)(C)CC1)c1ccc(-c2ccc3nnc4c(c3c2)n(C2CCOCC2)c(=O)n4C)cn1`
y

Follow-up item: `C[C@@H](OCCN1CCC2(CC1)CC2)c1ccc(-c2cc3c(cc2F)nnc2c3n(C3CCOCC3)c(=O)n2C)cn1`
y

Do the same for `C[C@@H](OCCN1CCC(C(F)(F)F)CC1)c1ccc(-c2ccc3nnc4c(c3c2)n(C2CCOCC2)c(=O)n4C)cn1` please
y

Try `Cn1c(=O)n(C2CCOCC2)c2c3cc(-c4ccc(COCCN5CCC(C)(C)C5)nc4)ccc3nnc21` next.
n

Ok, now `CC(C)n1c(=O)n(C)c2nnc3ccc(-c4ccc([C@@H](C)OCCN5CCC(C)(C)CC5)nc4)cc3c21`
y

Entry `CO[C@H]1C[C@H](n2c(=O)n(C)c3nnc4ccc(-c5ccc([C@@H](C)OCCN6CCC7(CC7)C6)nc5)cc4c32)C1` please
y

Next record, please: `Cn1c(=O)n(C2COC2)c2c3cc(-c4ccc(COCCN5CCC(F)CC5)nc4)ccc3nnc21`
n

Similarly, `CC(C)n1c(=O)n(C)c2nnc3ccc(-c4ccc([C@@H](C)OCCN5CCC6(CC5)CC6)nc4)cc3c21` ?
y

For `CO[C@H]1C[C@H](n2c(=O)n(C)c3nnc4ccc(-c5ccc(COCCN6CCCC6)nc5)cc4c32)C1` then?
n
